# Tested on: PXR homodimer (NR concentration 270 nM)
# testProtocol: PBM binding z-score (relative to random genomic background probes); higher = stronger binding; sequences stand for … in GC…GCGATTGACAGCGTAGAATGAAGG
measureName: PBM binding z-score
Keep it simple and answer with nothing but the number.

entrySequence: ATGTCTAGGTAAAGATAGTTCAGTGAATGCAAAT
PBM binding z-score: 0.588
--
entrySequence: AGATTGAGGTTAAGATCAGGGAAACAGAATACAT
PBM binding z-score: 0.986
--
entrySequence: CCGAGTAGGTTATGGGGCATTCCGGCAACGGTGA
PBM binding z-score: -0.17

Now examine the next entry.
(Q) Consider the sequence shown here: "TTACCAAGGTGAGCAGAGGTCGTTGATCCAACTC" What is its recorded PBM binding z-score?
(A) -0.112

----------
# Tested on: PPARg:RXRa 90nM:30nM, anti-RXR (NR concentration 90 nM, RXRa partner concentration 30 nM)
# testProtocol: PBM binding z-score (relative to random genomic background probes); higher = stronger binding; sequences stand for … in GC…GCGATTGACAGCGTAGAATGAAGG
Reported PBM binding z-score is given for each of the following sequences.
Keep it simple and answer with nothing but the number.

Some entries whose results are on file:
entrySequence: AGAACGAGGGCACGGTGAGTTGATAGCAGAGTAG
measured: 1.2
--
entrySequence: GCTAGTTGGTCAGTAAAAAGTCACACACCGGTCG
measured: 0.726
--
entrySequence: TCAAATAGGTAAAGGTGAAAGTCGAACGATATGA
measured: 4.99
--
entrySequence: TTACCAAGATGAGCTGAGGTCGTTGATCCAACTC
measured: 0.66
--
entrySequence: CCGACTGGGGCATAAGGATACCATAAGCCAGCCC
measured: 0.707

Now examine the next entry.
(Q) Item "CGAACTGGGTCAGAACAGGACAGTGAAGGATGAT" with PPARg:RXRa 90nM:30nM, anti-RXR (NR concentration 90 nM, RXRa partner concentration 30 nM) - PBM binding z-score?
(A) 3.42

----------
# Test system: PPARg:RXRa IVT, anti-PPARg (NR concentration 270 nM, RXRa partner concentration 90 nM)
# testProtocol: PBM binding z-score (relative to random genomic background probes); higher = stronger binding; sequences stand for … in GC…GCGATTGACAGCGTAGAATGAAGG
Please enter label 1 where PBM binding z-score is greater than or equal to 2, and label 0 where it is lower.

entrySequence: CCGACTGGGGGAGAAAGGTTACCATACCATCCGG
label: label 1

entrySequence: ACTAGCAGGCCTAGTTTGGGTCACTCAAACAAAG
label: label 0

entrySequence: TTATATAGGTAAACAGGTGAAAGTCCGTAAGTTA
label: label 1

entrySequence: TCATATAGGTAAACAGGTTAAAGTCCGTAAGTTA
label: label 1

entrySequence: ATCTCTAGGTAACAAGTTCAGTGATAGAGAGGAC
label: label 1

(Q) Textbook exercise: given the entry "ATTTACGGGTCAACGAGGTTATAGCACGCGTATA" , state whether its PBM binding z-score is greater than or equal to 2.
(A) label 1

(Q) Textbook exercise: given the entry "CCTAGTAGGTCAGGAGGTCACACACCGGATATGA" , state whether its PBM binding z-score is greater than or equal to 2.
(A) label 1

(Q) Textbook exercise: given the entry "TGGCCTAGGTCATTGGGCCAGTATAGTACGCATC" , state whether its PBM binding z-score is greater than or equal to 2.
(A) label 1

----------
# Tested on: RARb:RXRa (NR concentration 270 nM, RXRa partner concentration 90 nM)
# testProtocol: PBM binding z-score (relative to random genomic background probes); higher = stronger binding; sequences stand for … in GC…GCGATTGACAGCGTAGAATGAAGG
Please enter Y where PBM binding z-score is greater than or equal to 0.9, and N where it is lower.

entrySequence: ACTCGTAGGACAAAGGTCAGAGCTACGCCAGTGA
label: Y
--
entrySequence: GCATATAGGTAATACAAGGTGAGAGTCCGATTGT
label: N
--
entrySequence: GCTGCTAGGCCAGGTTGGTCAGCTAACGGGTACG
label: N
--
entrySequence: GGAACGAGGGCATTCGAGTTGGTAGCATGGCGAT
label: Y

Please turn your attention to the following entry.
(Q) Textbook exercise: given the entry "CTGAGTAGGTTATGGGGCATTCAGGCAACGGTGA" , state whether its PBM binding z-score is greater than or equal to 0.9.
(A) Y

----------
# Tested on: LXRa:RXRa (NR concentration 270 nM, RXRa partner concentration 90 nM)
# testProtocol: PBM binding z-score (relative to random genomic background probes); higher = stronger binding; sequences stand for … in GC…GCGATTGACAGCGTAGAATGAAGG
Please enter condition met where PBM binding z-score is greater than or equal to 2, and condition not met where it is lower.

(Q) Textbook exercise: given the entry "CCTACTGGGCCTCGAAAGGTCATTGATTCAGTGA" , state whether its PBM binding z-score is greater than or equal to 2.
(A) condition met

(Q) Textbook exercise: given the entry "TATACAGGGTCAAAGGCCAGCGTACGAATGTCGA" , state whether its PBM binding z-score is greater than or equal to 2.
(A) condition met

(Q) Textbook exercise: given the entry "AGTCAAAGTTCACCAGGTAACGTAAGATTCAGCT" , state whether its PBM binding z-score is greater than or equal to 2.
(A) condition met

(Q) Textbook exercise: given the entry "TGTCAAAGTTCGAAGGTAACGTAAGTATCCACAC" , state whether its PBM binding z-score is greater than or equal to 2.
(A) condition not met

(Q) Textbook exercise: given the entry "TCGAGTAGGTTACCGATGGGGCATTCAGCTTTCT" , state whether its PBM binding z-score is greater than or equal to 2.
(A) condition not met

(Q) Textbook exercise: given the entry "TAGCCTAGGTCATTGGGCAAGTATAGTACGCATC" , state whether its PBM binding z-score is greater than or equal to 2.
(A) condition met

(Q) Textbook exercise: given the entry "ATCTCTAGGTCAAGATAGTTCAGTGAATGCAAAT" , state whether its PBM binding z-score is greater than or equal to 2.
(A) condition met

(Q) Textbook exercise: given the entry "TCTTGTAAATCAATAGAGGTTAAGAAAGTGCGCT" , state whether its PBM binding z-score is greater than or equal to 2.
(A) condition met

(Q) Textbook exercise: given the entry "ATTCCAAGGTGATCGTGAGGTCGTTGATACTAAC" , state whether its PBM binding z-score is greater than or equal to 2.
(A) condition not met

----------
Reported PBM binding z-score is given for each of the following sequences.
# System: PXR homodimer (NR concentration 270 nM)
# testProtocol: PBM binding z-score (relative to random genomic background probes); higher = stronger binding; sequences stand for … in GC…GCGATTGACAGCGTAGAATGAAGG
Keep it simple and answer with nothing but the number.

entrySequence: TCTGCTAGGTCAGTTGGTCAGCCAACGAGCTGCC
measured: -0.764
//
entrySequence: ATCTCTAGGTAAAGATAGTTCACTGAATGCAAAT
measured: 0.848
//
entrySequence: CCTAGTTGGTCAGGAGGTTACACACCGGATATGA
measured: 0.653
//
entrySequence: CGTCCAAGTTCAGAGAGGTCAGTGAATGCCGAGT
measured: 13
//
entrySequence: GCTGCTAGGTCAACTGATGGTCAGCAAAAGCTCG
measured: -0.304

Now examine the next entry.
(Q) Consider the sequence shown here: "TCGTGTAGATCAACAGGAGGTTAAGAAAGATCGA" What is its recorded PBM binding z-score?
(A) -0.663

----------
# System: RARa:RXR (NR concentration 270 nM, RXRa partner concentration 90 nM)
# testProtocol: PBM binding z-score (relative to random genomic background probes); higher = stronger binding; sequences stand for … in GC…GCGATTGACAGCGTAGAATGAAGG
Please enter Criterion met where PBM binding z-score is greater than or equal to 0.6, and Criterion not met where it is lower.

Study these solved cases before continuing.
entrySequence: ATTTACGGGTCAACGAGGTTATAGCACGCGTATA
label: Criterion met

entrySequence: GCTGCTAGGTCAACTGATGGTCAGCTGAAGCTCG
label: Criterion met

entrySequence: CCGACTGGGGCAGAAAGGTTTCCATACCATCCGG
label: Criterion not met

(Q) Textbook exercise: given the entry "CCTAGCAGGCCAGGGGCACTCAAGCATTTCGCTT" , state whether its PBM binding z-score is greater than or equal to 0.6.
(A) Criterion not met

(Q) Textbook exercise: given the entry "TAGTCTAGGTCATGGGCCAGTATACCACGCGAAC" , state whether its PBM binding z-score is greater than or equal to 0.6.
(A) Criterion met

(Q) Textbook exercise: given the entry "TAGCCTAGGTCATTCCGGGGCCAGTATAGAAAGC" , state whether its PBM binding z-score is greater than or equal to 0.6.
(A) Criterion met

(Q) Textbook exercise: given the entry "ATCTCTAGGTAAAGATAGTTCTGTGAATGCAAAT" , state whether its PBM binding z-score is greater than or equal to 0.6.
(A) Criterion not met

(Q) Textbook exercise: given the entry "CCGACTGAGGCAAGGTTACCATAACGCACAGCCA" , state whether its PBM binding z-score is greater than or equal to 0.6.
(A) Criterion met

(Q) Textbook exercise: given the entry "GCTGCTAGGTCAACAGATGGTCAGCTAAAGCTCG" , state whether its PBM binding z-score is greater than or equal to 0.6.
(A) Criterion met

(Q) Textbook exercise: given the entry "GGGACGAGGGCAAGTTGATAGCAGAGTTTGATGG" , state whether its PBM binding z-score is greater than or equal to 0.6.
(A) Criterion met

(Q) Textbook exercise: given the entry "CCTATTAGTTTACCATAAGGGCAACCGAAGCTCG" , state whether its PBM binding z-score is greater than or equal to 0.6.
(A) Criterion met
